- tested-target: T1, similar peptide SP-05-0005, source protein not stated peptide on HLA-A*02:01 (human)
- T1 peptide: KIEEFLEAV
- protocol-details: killing

# binder, binding result
data = [
    ("TCR-14 (TCR, V domains shown) Valpha: QKITQTQPGMFVQEKEAVTLDCTYDTSDQSYGLFWYKQPSSGEMIFLIYQGSYDEQNATEGRYSLNFQKARKSANLVISASQLGDSAMYFCAINGLPGSARQLTFGSGTQLTVLP Vbeta: GVAQSPRYKIIEKRQSVAFWCNPISGHATLYWYQQILGQGPKLLIQFQNNGVVDDSQLPKDRFSAERLKGVDSTLKIQPAKLEDSAVYLCASSRFVATGTSPLHFGNGTRLTVT", "no recognition"),
    ("TCR-13 (TCR, V domains shown) Valpha: QKITQTQPGMFVQEKEAVTLDCTYDTSDQSYGLFWYKQPSSGEMIFLIYQGSYDEQNATEGRYSLNFQKARKSANLVISASQLGDSAMYFCAMSDPIMDTGRRALTFGSGTRLQVQP Vbeta: GITQSPKYLFRKEGQNVTLSCEQNLNHDAMYWYRQDPGQGLRLIYYSQIVNDFQKGDIAEGYSVSREKKESFPLTVTSAQKNPTAFYLCASKSRGPNLADTQYFGPGTRLTVL", "no recognition"),
    ("TCR-1 (TCR, V domains shown) Valpha: QTVTQSQPEMSVQEAETVTLSCTYDTSENNYYLFWYKQPPSRQMILVIRQEAYKQQNATENRFSVNFQKAAKSFSLKISDSQLGDTAMYFCAPLGLVAGSARQLTFGSGTQLTVLP Vbeta: GVSQDPRHKITKRGQNVTFRCDPISEHNRLYWYRQTLGQGPEFLTYFQNEAQLEKSRLLSDRFSAERPKGSFSTLEIQRTEQGDSAMYLCASSTDITSYEQYFGPGTRLTVT", "no recognition"),
]

meta.source: patent US20230057987A1
